system: Protein skinhead-1 (Caenorhabditis elegans, UniProt P34707)
Sequence (P34707 whole entry): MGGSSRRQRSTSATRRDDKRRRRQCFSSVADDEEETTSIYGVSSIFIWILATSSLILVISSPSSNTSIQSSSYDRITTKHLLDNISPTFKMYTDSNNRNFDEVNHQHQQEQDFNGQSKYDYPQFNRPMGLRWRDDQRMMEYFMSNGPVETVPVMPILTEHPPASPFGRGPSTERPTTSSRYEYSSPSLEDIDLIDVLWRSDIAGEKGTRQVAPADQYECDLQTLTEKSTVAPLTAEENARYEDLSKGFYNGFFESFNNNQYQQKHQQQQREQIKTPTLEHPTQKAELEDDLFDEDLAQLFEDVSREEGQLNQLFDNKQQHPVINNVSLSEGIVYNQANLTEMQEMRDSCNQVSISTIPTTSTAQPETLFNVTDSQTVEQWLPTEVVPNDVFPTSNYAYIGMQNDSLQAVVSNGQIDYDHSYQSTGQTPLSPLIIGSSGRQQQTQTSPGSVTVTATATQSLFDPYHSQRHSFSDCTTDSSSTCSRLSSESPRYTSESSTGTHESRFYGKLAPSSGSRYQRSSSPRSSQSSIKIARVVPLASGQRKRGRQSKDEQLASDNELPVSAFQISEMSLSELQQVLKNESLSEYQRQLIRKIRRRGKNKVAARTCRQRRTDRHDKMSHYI
Format: functional
The source made the active and inactive calls.
Hi! Could you answer with just one of these? yes (active), no (inactive)

mol	label value
O=C(Nc1ccc2oc(-c3ccccc3)nc2c1)c1cccnc1	no

What classification did C=CCn1c(SCC(=O)c2c(N)n(C)c(=O)n(C)c2=O)nnc1-c1ccoc1C end up with in this test?
no

Check the results log: what was the call for C=CCSc1nnc2c(n1)-c1cccc3cccc-2c13 ?
yes

Test call for this molecule, please: Cc1cccn2c(=O)c(C=O)c(N3CCCCCC3)nc12
no

What did this assay record as the result for O=C(Nc1cccnc1)c1cc(-c2ccc3c(c2)OCO3)on1 ?
no

How did this test come out for NC(=O)C1CCN(c2oc(-c3ccccc3F)nc2S(=O)(=O)c2ccc(Cl)cc2)CC1 ?
no

Fill in: this test's call for c1ccc(-c2csc(-c3cccnc3)n2)cc1 is ___
yes

====

system: Corticotropin-releasing factor receptor 2/Corticotropin-releasing factor-binding protein (Homo sapiens, UniProt P24387+Q13324)
Sequence (Q13324 whole entry): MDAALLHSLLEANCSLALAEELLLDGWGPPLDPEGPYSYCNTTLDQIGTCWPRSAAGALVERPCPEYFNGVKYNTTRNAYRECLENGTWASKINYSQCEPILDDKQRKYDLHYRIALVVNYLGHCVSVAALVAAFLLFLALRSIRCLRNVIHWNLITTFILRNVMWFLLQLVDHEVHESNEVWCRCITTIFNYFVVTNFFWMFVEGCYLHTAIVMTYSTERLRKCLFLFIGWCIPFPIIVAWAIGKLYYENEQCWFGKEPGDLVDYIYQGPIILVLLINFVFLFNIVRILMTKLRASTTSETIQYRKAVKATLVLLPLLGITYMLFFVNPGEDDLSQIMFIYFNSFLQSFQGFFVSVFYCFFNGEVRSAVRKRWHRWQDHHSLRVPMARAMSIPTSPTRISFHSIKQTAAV
Sequence (P24387 whole entry): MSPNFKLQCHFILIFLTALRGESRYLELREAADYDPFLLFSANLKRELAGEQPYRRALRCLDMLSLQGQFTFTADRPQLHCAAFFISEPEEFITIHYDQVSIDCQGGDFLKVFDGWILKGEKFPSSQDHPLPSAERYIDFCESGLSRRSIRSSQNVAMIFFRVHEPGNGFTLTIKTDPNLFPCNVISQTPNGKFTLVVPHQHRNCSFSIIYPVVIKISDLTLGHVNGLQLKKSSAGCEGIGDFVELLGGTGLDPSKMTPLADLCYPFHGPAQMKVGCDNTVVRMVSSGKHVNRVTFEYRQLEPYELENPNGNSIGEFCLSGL
assay notes: activators of CRF receptor 2 with binding protein – uHTS hits, confirmation (AID 602473)
Format: functional
protocol conditions: read-out: EC50_Mean
Active and inactive are the calls of the source.
Write down the outcome that applies. Available outcomes: active, inactive

Completed entries (count: 5):
compound	label value
CC1=CC(C)(C(Cl)(Cl)Cl)C(C)=CC1=NO (configuration not stated)	inactive
COc1cc(C2C(C(=O)c3ccco3)=C(O)C(=O)N2c2cc(C)on2)cc(Br)c1O (configuration not stated)	inactive
Cn1cc(C=C2C(=O)NC(=O)NC2=O)c2ccccc21	active
O=[N+]([O-])c1ccc(-c2cc(O)n3nc(-c4ccc(F)cc4)cc3n2)cc1	inactive
Nc1c2c(nc3ccccc13)CCN(Cc1ccccc1)C2	inactive

# next compound below
Which outcome was entered for the compound COCCn1c(C)cc(C(=O)CSc2ccc(NC(C)=O)cc2)c1C in this test?
inactive
